biological target: EGFR exon 20 SVD Ins D770_N771 (Ba/F3 cells) (Homo sapiens, UniProt P00533, INS770SVD); construct: expressed in transfected cells; host or cells: Ba/F3 (murine pro-B cells), retroviral transduction, puromycin selection, IL3-independent pool; assay: Inhibitor activity on EGFR-dependent cell growth (CellTiter-Glo, 72 h), Ba/F3 EGFR exon 20 SVD Ins; assay type: cell-based; details: read-out: BaF3 SVD IC50
Sequence (P00533 with tags, fused parts or gaps INS770SVD): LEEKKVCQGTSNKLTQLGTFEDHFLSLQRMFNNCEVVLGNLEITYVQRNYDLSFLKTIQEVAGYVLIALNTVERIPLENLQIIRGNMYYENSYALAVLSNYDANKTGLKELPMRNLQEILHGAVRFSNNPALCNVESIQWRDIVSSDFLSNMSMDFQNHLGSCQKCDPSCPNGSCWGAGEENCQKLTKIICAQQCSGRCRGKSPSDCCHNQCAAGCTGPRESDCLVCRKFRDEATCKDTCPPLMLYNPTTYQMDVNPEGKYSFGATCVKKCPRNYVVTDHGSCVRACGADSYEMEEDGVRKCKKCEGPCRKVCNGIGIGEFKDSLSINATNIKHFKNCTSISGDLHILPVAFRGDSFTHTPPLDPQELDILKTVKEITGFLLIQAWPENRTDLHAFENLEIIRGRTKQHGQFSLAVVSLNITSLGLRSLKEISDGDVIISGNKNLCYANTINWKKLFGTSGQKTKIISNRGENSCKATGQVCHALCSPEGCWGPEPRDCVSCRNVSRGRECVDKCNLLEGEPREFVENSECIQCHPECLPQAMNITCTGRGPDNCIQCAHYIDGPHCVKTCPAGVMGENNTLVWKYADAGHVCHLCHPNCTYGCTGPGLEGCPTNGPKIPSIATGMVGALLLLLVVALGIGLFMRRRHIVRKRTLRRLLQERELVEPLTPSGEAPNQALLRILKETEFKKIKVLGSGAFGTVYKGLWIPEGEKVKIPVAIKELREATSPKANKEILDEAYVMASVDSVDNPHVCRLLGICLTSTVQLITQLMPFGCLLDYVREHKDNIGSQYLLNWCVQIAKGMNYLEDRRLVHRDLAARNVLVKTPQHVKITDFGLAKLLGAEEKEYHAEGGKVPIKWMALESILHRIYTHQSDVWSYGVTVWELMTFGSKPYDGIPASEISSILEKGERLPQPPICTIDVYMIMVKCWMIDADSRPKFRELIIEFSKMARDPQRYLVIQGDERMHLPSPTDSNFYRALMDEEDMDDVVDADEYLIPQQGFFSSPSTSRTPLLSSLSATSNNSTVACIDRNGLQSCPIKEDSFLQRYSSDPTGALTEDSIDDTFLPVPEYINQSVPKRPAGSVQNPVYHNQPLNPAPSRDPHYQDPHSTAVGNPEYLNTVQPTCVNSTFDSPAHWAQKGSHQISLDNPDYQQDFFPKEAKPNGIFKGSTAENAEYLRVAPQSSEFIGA
Items are presented alongside their recorded IC50.

## Task Requested read-out: IC50. Entry: Nc1nccc(-c2[nH]c3c(c2Nc2cc(F)cc(F)c2)C(=O)NCC3)n1 [compound 204]
## Result 100 to 1000 nM

## Task What IC50 value was documented for this compound, CCc1c(F)cccc1Nc1c(-c2ccnc3cnc(OC)nc23)[nH]c2c1C(=O)NCC2 [Compound 791] ?
## Result < 100 nM
